experiment: self-splicing fitness, log relative to wild type (ln ratio); higher = more splicing; Tetrahymena group I intron in knt gene, E. coli kanamycin selection, DiMSum; sequences stand for … in CUCUCU…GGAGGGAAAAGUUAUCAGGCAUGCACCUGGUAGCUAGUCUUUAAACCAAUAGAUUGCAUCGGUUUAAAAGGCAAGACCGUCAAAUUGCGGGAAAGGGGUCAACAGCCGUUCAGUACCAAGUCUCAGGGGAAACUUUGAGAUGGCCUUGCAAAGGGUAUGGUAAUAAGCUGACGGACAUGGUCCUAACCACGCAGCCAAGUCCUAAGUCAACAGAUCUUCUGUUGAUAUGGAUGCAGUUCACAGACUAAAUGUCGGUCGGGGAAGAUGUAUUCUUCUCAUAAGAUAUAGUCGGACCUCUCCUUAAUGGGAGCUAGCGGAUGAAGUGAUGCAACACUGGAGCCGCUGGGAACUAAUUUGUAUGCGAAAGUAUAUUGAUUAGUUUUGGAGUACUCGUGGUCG; details: 30 °C;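 further: selection with 25 µg/mL kanamycin versus none on LB agar overnight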
Listed next: entries and their corresponding self-splicing fitness (ln).
outcome.measure: self-splicing fitness (ln)

chain: ACAGAGCAAUAUUACGUACG
obs.value: -3.9

chain: ACCUAGCAAUAUUACGAUAA
obs.value: -2.61

chain: GCGAAGCAAUAUUACGACAG
obs.value: -3.79

chain: GAUUAGCAAUAUUACGAACC
obs.value: -0.528

chain: ACUAAGCAAUAUUACGUAUA
obs.value: -1.9

chain: ACUAAGCAAUAUUACGCAAC
obs.value: -3.28

chain: GCUAAGCAAUAUUACGCAUC
obs.value: -0.687

chain: CGGGAGCAAUAUUACGUCAG
obs.value: -3.08

----------
test: self-splicing fitness, log relative to wild type (ln ratio); higher = more splicing; Tetrahymena group I intron in knt gene, E. coli kanamycin selection, DiMSum; sequences stand for … in CUCUCU…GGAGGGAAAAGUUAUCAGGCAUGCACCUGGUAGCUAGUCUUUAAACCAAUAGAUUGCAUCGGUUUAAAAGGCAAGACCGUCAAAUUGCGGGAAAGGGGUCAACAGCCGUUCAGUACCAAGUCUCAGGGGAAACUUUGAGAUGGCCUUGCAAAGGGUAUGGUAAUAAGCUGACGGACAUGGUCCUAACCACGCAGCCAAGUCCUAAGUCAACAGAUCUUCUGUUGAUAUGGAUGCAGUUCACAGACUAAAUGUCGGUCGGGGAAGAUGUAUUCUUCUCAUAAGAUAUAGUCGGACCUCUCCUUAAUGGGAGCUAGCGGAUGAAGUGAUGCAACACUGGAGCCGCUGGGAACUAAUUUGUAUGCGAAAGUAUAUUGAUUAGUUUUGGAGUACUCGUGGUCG; details: 37 °C
// bucketize self-splicing fitness (ln): low (below -2), intermediate (-2 to below -0.2), high (-0.2 or more)

chain: AUGAAGCAAUAUUACGUUUU
assigned.category: intermediate
//
chain: UAAAAGCAAUAUUACGUUUG
assigned.category: intermediate
//
chain: UGAAAGCAAUAUUACGCUCC
assigned.category: intermediate
//
chain: CUCAAGCAAUAUUACGUACG
assigned.category: intermediate
//
chain: UUGCAGCAAUAUUACGCGAU
assigned.category: low
//
chain: CUUCAGCAAUAUUACGAGAU
assigned.category: low
//
chain: GUGAAGCAAUAUUACGACGA
assigned.category: high
//
chain: AACGAGCAAUAUUACGCUGA
assigned.category: low
//
chain: AUUCAGCAAUAUUACGCUAU
assigned.category: intermediate
//
chain: UGGUAGCAAUAUUACGGUAC
assigned.category: intermediate
//
chain: CUAUAGCAAUAUUACGCGAC
assigned.category: high
//
chain: CCACAGCAAUAUUACGCCUC
assigned.category: low
//
chain: UGCGAGCAAUAUUACGUAAC
assigned.category: low
//
chain: UUGCAGCAAUAUUACGCCUU
assigned.category: high
//
chain: GUGAAGCAAUAUUACGUAUC
assigned.category: high
//
chain: GGUCAGCAAUAUUACGGACA
assigned.category: high

This collection of values is drawn from the supplement of paper PMC7877785.
